Ref: patent US20190359687A1

- study.system: T1, human glycophorin A on human red blood cells or red blood cell membranes (human, UniProt P02724 20-150)
- T1 construct: whole, on cells; also called hRBC; human RBC membranes
- T1 sequence (looked up): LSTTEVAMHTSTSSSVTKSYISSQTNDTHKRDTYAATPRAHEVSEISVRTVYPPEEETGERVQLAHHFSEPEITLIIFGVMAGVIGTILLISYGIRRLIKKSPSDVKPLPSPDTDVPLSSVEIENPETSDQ
- assay.details: SPR (Biacore), Fab over human RBC membranes, 1:1 fit;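 note: human RBC membrane preparations captured on an L1 sensor surface, with antibody passed over them as analyte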
Items are presented alongside their recorded pKd.
FYI, pKd means -log10 of a concentration in mol per litre.

binder: TPP-5907, humanized and germlined 6C12 Fab; VL: (S24R, A26S, S49A, P54Q, F95Y); VH: (I48M, S54G, D56G, D66G, L70M, T72R) (Fab, V domains shown) VH: EVQLVQSGAEVKKPGASVKVSCKASGYTFTTYTIHWVRQAPGQGLEWMGYINPGSGYTRYNPKFKGRVTMTRDKSTSTAYMELRSLRSDDTAVYYCQTGTRDYWGQGTTVTVSS VL: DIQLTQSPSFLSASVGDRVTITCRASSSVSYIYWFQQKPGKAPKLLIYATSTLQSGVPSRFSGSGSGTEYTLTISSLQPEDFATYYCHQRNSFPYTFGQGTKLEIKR
attribute.measured: pKd
experimental.result: 9.10

Now look at this one.
The binder listed as TPP-5840, Hu6C12-24 Fab variant VL: (S24R, A26S, S49A, P54Q, F95Y); VH: (L70M, T72R) (Fab, V domains shown, Built on the parental Fab TPP-4935) VH: EVQLVQSGAEVKKPGASVKVSCKASGYTFTTYTIHWVRQAPGQGLEWIGYINPSSDYTRYNPKFKDRVTMTRDKSTSTAYMELRSLRSDDTAVYYCQTGTRDYWGQGTTVTVSS VL: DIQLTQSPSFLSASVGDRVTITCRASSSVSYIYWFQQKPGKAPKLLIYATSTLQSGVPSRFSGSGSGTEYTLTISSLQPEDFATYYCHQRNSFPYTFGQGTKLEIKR shows pKd equal to 8.39
